Target: Nuclear receptor ROR-gamma (Mus musculus) (UniProt P51450)
Sequence (P51450 whole entry, looked up): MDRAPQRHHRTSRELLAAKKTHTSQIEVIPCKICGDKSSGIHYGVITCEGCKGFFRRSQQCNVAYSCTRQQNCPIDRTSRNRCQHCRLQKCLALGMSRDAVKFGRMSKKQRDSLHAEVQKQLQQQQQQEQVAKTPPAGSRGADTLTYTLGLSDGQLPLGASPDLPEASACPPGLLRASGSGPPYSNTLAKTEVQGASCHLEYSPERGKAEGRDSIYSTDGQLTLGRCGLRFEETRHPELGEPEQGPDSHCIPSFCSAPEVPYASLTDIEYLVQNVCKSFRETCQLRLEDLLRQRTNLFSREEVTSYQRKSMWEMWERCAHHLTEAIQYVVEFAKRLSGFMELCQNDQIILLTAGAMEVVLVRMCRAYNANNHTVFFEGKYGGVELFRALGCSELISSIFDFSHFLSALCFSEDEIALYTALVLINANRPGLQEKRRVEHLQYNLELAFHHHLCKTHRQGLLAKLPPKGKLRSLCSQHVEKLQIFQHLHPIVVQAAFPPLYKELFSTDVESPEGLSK
Experiment: qHTS for inhibitors of ROR gamma transcriptional activity; also: nearly all actives have a fitted effect of over 60% in size
Settings: Drosophila S2 Gal4-RORgamma UAS-luciferase reporter, 20 h; series mostly up to 53.6 µM
Screen size: about 310,000 compounds; about 17,000 (5.5%) were called active. Inconclusive results (about 11%) are left out. Calls follow the shape of the dose curve; as a rule, active = well fitted inhibition curve with a large enough effect; inconclusive = small, poorly fitted or top-dose-only effect, or effect the other way; inactive = no such curve, though single readings can be large or run the other way. Shown is part of a subset that was picked to be rich in actives.
Labels: YES for active, NO for inactive

| COMPOUND | TEST_TARGET | GROUP_LABEL |
| --- | --- | --- |
| COc1ccc(C/C(N)=N/OC(=O)c2ccco2)cc1OC | Nuclear receptor ROR-gamma (Mus musculus) (UniProt P51450) | NO |
| Cc1nnc(N/N=C/c2cccs2)[nH]c1=O | Nuclear receptor ROR-gamma (Mus musculus) (UniProt P51450) | NO |
| COc1ccc(C(=O)ON=C2c3ccccc3-c3ccccc32)cc1OC | Nuclear receptor ROR-gamma (Mus musculus) (UniProt P51450) | NO |
| Cc1cc(C)nc(SC(C)C(=O)N/N=C/c2cccs2)n1 (stereo unspecified) | Nuclear receptor ROR-gamma (Mus musculus) (UniProt P51450) | NO |
| COc1ccc(-c2cc(=O)oc3cc(OC(C)C(=O)Nc4ccc(CN5CCOCC5)cc4)ccc23)cc1 (stereo unspecified) | Nuclear receptor ROR-gamma (Mus musculus) (UniProt P51450) | NO |
| CN(Cc1cccnc1)C(=O)c1cc(COc2ccc3ncccc3c2)on1 | Nuclear receptor ROR-gamma (Mus musculus) (UniProt P51450) | YES |
| COc1ccc(C(=O)O/N=C(\N)Cc2ccc(Cl)cc2Cl)cc1OC | Nuclear receptor ROR-gamma (Mus musculus) (UniProt P51450) | YES |
| CCc1nnc(NS(=O)(=O)c2ccc(NC(=S)NC(=O)/C=C/c3cccs3)cc2)s1 | Nuclear receptor ROR-gamma (Mus musculus) (UniProt P51450) | NO |
| Cc1cccc(C)c1NC1=NC(=S)N(c2ccc(N(C)C)cc2)C1(C)C | Nuclear receptor ROR-gamma (Mus musculus) (UniProt P51450) | YES |
| Cc1n[nH]c(=O)nc1N/N=C/c1cccs1 | Nuclear receptor ROR-gamma (Mus musculus) (UniProt P51450) | YES |
| CCOC(=O)c1c(NC(=O)/C=C/c2ccco2)sc(C)c1C | Nuclear receptor ROR-gamma (Mus musculus) (UniProt P51450) | NO |

###

Target: Nuclear receptor ROR-gamma (Mus musculus) (UniProt P51450)
Assay: qHTS for inhibitors of ROR gamma transcriptional activity; also: nearly all actives have a fitted effect of over 60% in size
Settings: Drosophila S2 Gal4-RORgamma UAS-luciferase reporter, 20 h; series mostly up to 53.6 µM
Excerpt: NIH Molecular Libraries Probe Production Network [MLPCN] NIH Chemical Genomics Center [NCGC] […] Small molecule inhibitors of ROR gamma activity are detected by a decrease in luciferase reporter activity. […]
In all, about 310,000 compounds went through this assay and about 17,000 (5.5%) were called active. Another 11% or so got no clear call; they are omitted. The call rests on the fitted dose curve; in most records, active means well fitted inhibition curve with a large enough effect; inconclusive means small, poorly fitted or top-dose-only effect, or effect the other way; inactive means no such curve, though single readings can be large or run the other way. The sample as a whole holds a higher share of actives than the screen did.
Possible outcomes: true (1) for active, false (0) for inactive

| COMPOUND | GROUP_LABEL |
| --- | --- |
| CCc1nnc(NC(=O)c2ccc(S(=O)(=O)NC3CCCCC3)cc2)s1 | false (0) |
| CCOc1ccccc1N=C1NC(=O)CS1 | false (0) |
| COc1ccc(CCNC(=O)CN2C(=O)CCSc3ccccc32)c(OC)c1 | false (0) |
| COc1c(Cl)cc(C(=O)Nc2ccc(Cl)cn2)cc1Cl | false (0) |
| COc1cccc(C(=O)Nc2ccc(N3CCCC3)cc2)c1 | false (0) |
| COc1ccc(C(=O)c2c(C)c(CCC#N)n3ccccc23)c(OC)c1 | false (0) |
| CC1CCCN(S(=O)(=O)c2ccc(C(=O)Nc3nnc(-c4ccncc4)o3)cc2)C1 (stereo unspecified) | false (0) |
| COC(=O)/C=C/C(=O)NCc1ccco1 | false (0) |
| COc1cc(/C=N/Nc2nc3ccccc3s2)ccc1O | false (0) |
| O=C(CN1CCN(c2ccccc2)CC1)Nc1ccc(F)cc1 | false (0) |
| COC(=O)CCc1ccccc1S(=O)(=O)N(CCC(=O)OC)Cc1ccccc1 | false (0) |
| CSCc1nnc(NC(=O)c2ccc(S(=O)(=O)N3CCCCC3C)cc2)o1 (stereo unspecified) | true (1) |
| CC(=O)Nc1ccc(S(=O)(=O)N2CCC(C(=O)NC3CC3)CC2)cc1 | false (0) |
| COc1cccc(N(CC(=O)NC2CCCCCC2)S(=O)(=O)c2ccccc2)c1 | false (0) |
| O=C(CCN1CCN(c2ccccc2)CC1)NNC(=S)Nc1ccccc1 | true (1) |
| CCOc1cc(C)ccc1OCc1nnc(SCC(=O)Nc2cccc(C(=O)O)c2)n1-c1ccccc1 | false (0) |
| C/C(=N\N(C)C)c1ccc(OCCOc2ccc([N+](=O)[O-])cc2)cc1 | false (0) |
| COc1ccc(C(=O)Nc2ccc(N3CCC(C)CC3)cc2)cc1Br | false (0) |
| O=C(Nc1ccc(S(=O)(=O)N2CCOCC2)cc1)c1ccc2ncsc2c1 | false (0) |
| O=C(NC(Cc1ccccc1)C(=O)O)/C(=C\c1ccccc1)NC(=O)c1ccco1 (stereo unspecified) | false (0) |
| COc1ccc(C(=O)NC(=S)Nc2ccc(N3CCCC3)cc2)cc1OC | true (1) |
| COc1ccc(C(=O)NC2CC2)cc1OC1CCN(C/C=C/c2ccccc2)CC1 | false (0) |
| CCOc1ccc(C(O)Cc2nc3ccccc3n2C)cc1 (stereo unspecified) | false (0) |
| CCc1ccc(C(=O)COC(=O)c2ccco2)cc1 | false (0) |
| CN1CCN(C(=O)c2cnn(-c3ccccc3)c2NC(=O)c2ccc([N+](=O)[O-])cc2)CC1 | false (0) |
| CNC(=O)c1ccsc1NC(=O)c1ccc(S(=O)(=O)N2CCOCC2)cc1 | false (0) |
| COC(=O)c1c(NC(=O)C2CC(C)=C(C)CC2C(=O)O)sc2c1CCCCC2 (stereo unspecified) | false (0) |
| C=CCn1c(C)cc(C2=NNC(=NCC)SC2)c1C | true (1) |
| COc1ccc(C/C(C)=N/NC(=O)c2ccncc2)cc1 | false (0) |
| CC(NCc1nc2ccccc2n1C)C12CC3CC(CC(C3)C1)C2 (stereo unspecified) | true (1) |
| COC(=O)c1ccc(NC(=O)c2cc(Cl)ccc2OC)cc1 | false (0) |
| COc1ccc2nc(SCC(=O)Nc3c(C)cc(C)cc3C)[nH]c2c1 | false (0) |
| O=C(NCCCN1CCOCC1)c1cc(-c2cccc(O)c2)on1 | false (0) |
| S=C(NCc1ccco1)Nc1ccc2c(c1)OCCO2 | false (0) |
| Cc1cc(C2=NNC(=Nc3ccc(S(=O)(=O)N4CCOCC4)cc3)SC2)c(C)n1CC1CCCO1 (stereo unspecified) | false (0) |
| CC(=O)c1cccc(NC(=O)COc2ccc(S(=O)(=O)N3CCOCC3)cc2)c1 | false (0) |
| COCCn1c(SCC(=O)Nc2nc(C)cs2)nnc1C(C)C | false (0) |
| CCOc1ccc(CCNC(=O)CCc2nnc3ccc(N4CCCC4)nn23)cc1OCC | false (0) |
| CNC(=S)N/N=C/c1ccc(N2CCOCC2)s1 | true (1) |
| COc1ccc(C(=O)N/N=C(\C)CC(=O)Nc2ccc(Cl)cn2)cc1 | true (1) |
| COc1cc(C(=O)NC(=S)NCc2ccco2)cc(OC)c1OC | true (1) |
| O=C(N/N=C/C=C/c1ccco1)c1cccs1 | true (1) |
| COc1ccc(-c2cc(C(=O)NCc3ccco3)no2)cc1OC | false (0) |
| COc1cccc(OC)c1C(=O)NC(=S)NCc1ccco1 | true (1) |
| CCCN1CCn2c3c(c4cc(Br)ccc42)CCCC31 (stereo unspecified) | false (0) |
| Cc1ccc(Nc2nc(-c3ccc(O)cc3O)cs2)nc1 | true (1) |

###

Biological target: Nuclear receptor ROR-gamma (Mus musculus) (UniProt P51450)
Assay: qHTS for inhibitors of ROR gamma transcriptional activity; also: nearly all actives have a fitted effect of over 60% in size
Details: Drosophila S2 Gal4-RORgamma UAS-luciferase reporter, 20 h; series mostly up to 53.6 µM
The whole screen tested about 310,000 compounds, of which about 17,000 (5.5%) were called active. Roughly 11% stayed inconclusive and do not appear here. Calls follow the shape of the dose curve; as a rule, active = well fitted inhibition curve with a large enough effect; inconclusive = small, poorly fitted or top-dose-only effect, or effect the other way; inactive = no such curve, though single readings can be large or run the other way. This is one part of a sample in which actives are shown more often than they occur.
Outcome codes: active, inactive

| COMPOUND | GROUP_LABEL |
| --- | --- |
| CC(C)c1ccc2oc(=O)cc(CN3CCN(Cc4ccccc4)CC3)c2c1 | inactive |
| Cc1cccc(N(C)C(=O)c2cc(S(=O)(=O)N3CCCCC3)c[nH]2)c1 | inactive |
| CC(C)(C)c1ccc(C(CC(=O)O)NS(=O)(=O)Cc2ccccc2)cc1 (centres undefined) | inactive |
| CSc1ccc(NC(=O)/C=C/C(=O)O)cc1 | active |
| COc1cccc(NC(=O)COc2cc(C)cc3oc(=O)cc(C)c23)c1 | inactive |
| COc1cc(OC)cc(C(=O)Nc2ccc(S(=O)(=O)Nc3cc(C)on3)cc2)c1 | inactive |
| Cc1ccc(CNC(=O)Cc2cn(C)c3ccccc23)cc1 | inactive |
| CCOC(=O)c1c(-c2ccccc2)oc2cc(Br)c(O)c(C=O)c12 | inactive |
| CCOc1ccc(C(C(=O)NC2CCCC2)N(C(=O)c2snc(C(N)=O)c2N)C2CCCC2)cc1 (centres undefined) | inactive |
